The measured values listed here are drawn from a melting point compilation (Tetko et al.; mined from patent text by program, amines drawn as free bases though some values may be those of a salt).

Readout name: melting point

{"columns": ["Smiles string", "Test value"],
 "data": [
  ["CC=NN(C(=O)c1ccccc1)c1ccc(OC)c(F)c1", "110 to 112 °C"],
  ["c1ccc2cc(-c3ccc(-c4nc(-c5ccc(-c6ccc7ccccc7c6)cc5)n(-c5cccc6ccccc56)n4)cc3)ccc2c1", "> 250 °C"],
  ["OOC1(OO)C2CC3CC(C2)CC1C3", "144 to 145 °C"]
]}

Hi! Can you tell me melting point for each of these compounds?
1. COc1ccc(C(=O)Nc2ccc(-c3ccc(C(C)=O)cc3C)cc2)cc1CCCN(C)C
2. CCCCCCCCCCC#Cc1ccc2c(c1)c(C=O)cn2S(=O)(=O)c1ccc(C)cc1

1. 110 to 112 °C
2. 84 to 86 °C

----------
Would you mind telling me the reported melting point of each entry?

Below, 3 molecules whose answers are already recorded.
{"columns": ["Molecule", "melting point"],
 "data": [
  ["CCOC(=O)N=C(NC(=O)Nc1ccc(C)cc1)SCC", "110 to 112 °C"],
  ["O=C(O)CCNS(=O)(=O)c1ccc(N2CCC(c3ccccc3)CC2)cc1", "145 to 147 °C"],
  ["NC1=C(NC=O)C(=O)N2CCN=C2N1", "268 °C"]
]}

Give melting point for each of the items listed below.
1. O=C(Cn1ccnc1)c1ccc(Cl)c(Cl)c1
2. CCc1cncc(-c2[nH]nc(C(=O)Cc3ccc4ccccc4c3)c2N)c1

1: 126 to 128 °C; 2: 222 to 224 °C

----------
Readout name: melting point

// solved cases for melting point follow
{"columns": ["Molecule", "Test value"],
 "data": [
  ["c1ccc([C@@]23O[C@@H]2CCc2ccccc23)cc1", "124 to 126 °C"],
  ["N#CCc1ccc(-c2nc3ccccc3o2)cc1N", "198 to 199 °C"],
  ["CC(C)(C)NCCCNC(=O)Cn1cnc(-c2ccccc2)c1-c1ccccc1", "94 to 96 °C"],
  ["CCOC(=O)CCC(O)c1ccc(-c2ccccc2F)cc1 (stereo unspecified)", "61 to 62 °C"],
  ["CC(=NO)c1ccc(C(F)(F)C(F)(F)c2ccccc2)cc1", "137 to 139 °C"],
  ["CCOC(=O)c1cnc2c3cc(OC)c(OC)cc3ccn2c1=O", "264 to 265 °C"]
]}

Go through the list and state melting point for each entry.
1. O=C1NC(=O)C(N2C(=O)c3ccccc3C2=O)CC1c1ccccc1 (stereo unspecified)
2. O=S(=O)(c1ccc(-c2ccc3cnc(Nc4ccc(N5CCOCC5)cc4)nn23)cc1)N1CCCC1
3. CCN(CCc1ccc(Nc2ncc3c(n2)-c2ccccc2C(c2cccc(Br)c2)C3)cc1)Cc1ccncc1 (stereo unspecified)

1: 228 to 231 °C; 2: 182 to 184 °C; 3: 88 to 90 °C

----------
Kindly supply the reported melting point values for the records listed here.

Some molecules with recorded melting point:
{"columns": ["Molecule", "melting point"],
 "data": [
  ["CCC1Cc2ccc(C(C)C(=O)O)cc2C1=O (stereo not given)", "85 to 86 °C"],
  ["COc1ccc(C2SCC(C(=O)O)N2C(=O)c2ccccc2)cc1 (stereo not given)", "108 to 110 °C"],
  ["Cc1cc(-c2cc(O)c(SCCc3ccccc3)c(=O)o2)ccc1OCc1cccnc1", "149 to 151 °C"],
  ["Cc1c(N)cccc1-c1ccnc(Nc2ccc(C(=O)N3CCOCC3)cc2)n1", "183 to 184 °C"]
]}

// next entry
Just so you know, measured melting point for Cc1cc(-c2ccc(C#N)cc2)nc(-c2cccc(-c3cccc(S(N)(=O)=O)c3)n2)n1 came out at 255 °C
